This collection of values is drawn from patent US20090325959A1.

// reported pKi for each item listed
EXPERIMENTAL_TARGET: ROCK1 (Homo sapiens)
Construct: purchased Upstate/Chemicon 14-601
EXPERIMENT: Rho kinase inhibition assay (IMAP fluorescence polarization), ROCK1
Format: biochemical
CONDITION_DETAILS: Avg, 10 μM ATP
pKi (log units): -log10 of the concentration in mol/L.

CN(C)S(=O)(=O)Nc1cccc(CN2CCC[C@H](Nc3ccc4[nH]ncc4c3)C2)c1	6.51
OCCOc1cccc(CN2CCC[C@H](Nc3cccc4cnccc34)C2)c1	6.24
Cc1ccc(CN2CCC[C@@H](Nc3ccc4[nH]ncc4c3)C2)cc1O	7.82
OCCn1ccc2ccc(CN3CC[C@@H](Nc4cccc5cnccc45)C3)cc21	8.31

Fill in the recorded pKi for this molecule, with ROCK1 (Homo sapiens) as test system: c1cc(N[C@@H]2CCN(Cc3ccncn3)C2)c2ccncc2c1 5.73

Could you share what pKi was measured for Cc1ccc(S(=O)(=O)Nc2cc(CN3CCC[C@@H](Nc4ccc5[nH]ncc5c4)C3)ccc2C)cc1 , tested on ROCK1 (Homo sapiens)? 7.15

API: value(readout= pKi, system= ROCK1 (Homo sapiens), query= CSc1ccc(CN2CCC[C@H](Nc3cccc4cnccc34)C2)cc1 ) 5.84

Give pKi (ROCK1 (Homo sapiens)) of the following molecule: O=C(OCCOc1cccc(CN2CCC[C@H](Nc3ccc4[nH]ncc4c3)C2)c1)c1ccccc1 6.31

Missing value: pKi, ROCK1 (Homo sapiens), entry O=C(Nc1cccc(CN2CCC[C@@H](Nc3ccc4[nH]ncc4c3)C2)c1)N1CCCC1 . Fill in? 7.27

Give ROCK1 (Homo sapiens) pKi for CS(=O)(=O)Nc1cccc(CN2CCC(Nc3ccc4[nH]ncc4c3)C2)c1 (stereo not shown) 7.08

For ROCK1 (Homo sapiens), provide pKi of FC(F)(F)c1ccc(CN2CCC[C@@H](Nc3ccc4[nH]ncc4c3)C2)cc1 please. 6.86

###

EXPERIMENT: Compound plasma concentrations in unsensitized mice at 15 min post administration
Assay type: in vivo
CONDITION_DETAILS: mouse, 15 μmol/kg; mean compound plasma concentration in mice at 15 minutes post oral administration; read-out: Mouse Oral PK
READOUT_KIND: concentration at 15 min

Example cases with answers are listed next.
C#Cc1cccc(CN2CCC[C@H](Nc3ccc4[nH]ncc4c3)C2)c1	522 nM
O=C(COc1cccc(CN2CCC[C@@H](Nc3ccc4[nH]ncc4c3)C2)c1)Nc1cccnc1	0 nM
Cc1ccc(S(=O)(=O)Nc2cc(CN3CCC[C@H](Nc4ccc5[nH]ncc5c4)C3)ccc2C)cc1	259 nM

Could you tell me which concentration at 15 min is on file for OCCn1ccc2ccc(CN3CCC[C@@H](Nc4ccc5[nH]ncc5c4)C3)cc21 ? 395 nM

Data request, read-out concentration at 15 min, for Cc1ccc(CN2CCC[C@H](Nc3ccc4[nH]ncc4c3)C2)c(C)c1 32 nM

Quick one: concentration at 15 min for CSc1ccc(CN2CCC[C@H](Nc3ccc4[nH]ncc4c3)C2)cc1 ? 348 nM

I have this compound here, Cc1ccc(CN2CC[C@@H](Nc3cccc4cnccc34)C2)cc1 , and I need its recorded concentration at 15 min. 74 nM

Would you kindly share the measured concentration at 15 min for NC(=O)Cn1ccc2cc(CN3CC[C@@H](Nc4cccc5cnccc45)C3)ccc21 ? 90 nM

Which concentration at 15 min is reported for this compound? c1cc(C2CC2)ccc1CN1CCC[C@@H](Nc2ccc3[nH]ncc3c2)C1 672 nM

###

EXPERIMENTAL_TARGET: ROCK1 (Homo sapiens, UniProt Q13464)
Construct: purchased Upstate/Chemicon 14-601
Sequence (Q13464 17-535 limits assumed): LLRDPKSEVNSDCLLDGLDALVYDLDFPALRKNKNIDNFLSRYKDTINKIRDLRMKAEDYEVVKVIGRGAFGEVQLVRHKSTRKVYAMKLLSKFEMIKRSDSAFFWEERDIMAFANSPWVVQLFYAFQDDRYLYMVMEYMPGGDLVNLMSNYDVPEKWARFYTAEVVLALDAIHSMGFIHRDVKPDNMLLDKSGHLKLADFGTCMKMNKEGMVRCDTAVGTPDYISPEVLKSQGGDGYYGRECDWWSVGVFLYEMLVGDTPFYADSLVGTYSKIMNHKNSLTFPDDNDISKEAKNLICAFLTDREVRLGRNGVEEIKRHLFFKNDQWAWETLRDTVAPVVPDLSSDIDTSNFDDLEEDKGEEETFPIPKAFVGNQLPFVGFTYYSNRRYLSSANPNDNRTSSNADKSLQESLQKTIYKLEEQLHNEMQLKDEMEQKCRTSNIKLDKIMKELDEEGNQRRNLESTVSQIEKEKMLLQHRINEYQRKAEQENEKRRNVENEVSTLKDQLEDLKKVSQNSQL
EXPERIMENT: Rho kinase inhibition assay (IMAP fluorescence polarization), ROCK1
Assay type: biochemical
CONDITION_DETAILS: Avg, 10 μM ATP
Measured pKi, listed per entry for reference.
# pKi = -log10(concentration in molar units)

Sample records with pKi:
c1cnc(CN2CC[C@@H](Nc3cccc4cnccc34)C2)nc1	5.62
Cc1ccc(CN2CC[C@@H](Nc3ccc4[nH]ncc4c3)C2)cc1	7.15
Cc1ccc(CN2CC[C@@H](Nc3cccc4cnccc34)C2)cc1OCC(=O)OC(C)(C)C	7.67
Cc1cccc(CN2CCC[C@@H](Nc3ccc4[nH]ncc4c3)C2)c1	6.80
CC(CN1CCC[C@@H](Nc2ccc3[nH]ncc3c2)C1)c1ccccc1 (some centres unmarked)	6.68
OC[C@@H](O)COc1cccc(CN2CCC[C@H](Nc3ccc4[nH]ncc4c3)C2)c1	6.68
c1cc(CN2CC[C@@H](Nc3cccc4cnccc34)C2)cc(C2CC2)c1	7.00

# next compound below
What does the data say about its pKi? Entry: CCCCS(=O)(=O)Nc1cc(CN2CCC[C@H](Nc3ccc4[nH]ncc4c3)C2)ccc1C 7.31

###

// reported pKi per item
EXPERIMENTAL_TARGET: ROCK1 (Homo sapiens, UniProt Q13464)
Construct: purchased Upstate/Chemicon 14-601
EXPERIMENT: Rho kinase inhibition assay (IMAP fluorescence polarization), ROCK1
Format: biochemical
CONDITION_DETAILS: average Ki
pKi here: minus log base 10 of the concentration, concentration in moles per litre.

Reference set, count: 2
O=C(COc1cccc(CN2CCC[C@@H](Nc3ccc4[nH]ncc4c3)C2)c1)Nc1cccnc1	7.12
c1cc2c(cc1CN1CCC[C@H](Nc3ccc4[nH]ncc4c3)C1)OCCO2	7.02

For ROCK1 (Homo sapiens, UniProt Q13464), provide pKi of c1cc2cc(CN3CCC[C@H](Nc4ccc5[nH]ncc5c4)C3)ccc2s1 please. 7.18

###

EXPERIMENTAL_TARGET: ROCK1 (Homo sapiens)
Construct: purchased Upstate/Chemicon 14-601
EXPERIMENT: Rho kinase inhibition assay (IMAP fluorescence polarization), ROCK1;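 also: kinase reaction run 60 min at room temperature, then phosphorylated substrate captured on IMAP beads for 30 min, with fluorescence polarization read in mP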
Format: biochemical
CONDITION_DETAILS: Avg, 10 μM ATP
READOUT_KIND: pKi
Give only the number. pKi is defined as minus log10 of concentration in molar units.

Answered cases to consult:
Cc1c(CN2CC[C@@H](Nc3cccc4cnccc34)C2)cccc1NS(C)(=O)=O	7.74
CN(c1cccc(CN2CCC[C@@H](Nc3ccc4[nH]ncc4c3)C2)c1)S(C)(=O)=O	6.29

# input molecule: CC(C)c1ccc(CN2CCC[C@@H](Nc3ccc4[nH]ncc4c3)C2)cc1 ; wanted: its pKi 6.71

Item O=S(=O)(Nc1cccc(CN2CC[C@@H](Nc3cccc4cnccc34)C2)c1)N1CCCCC1 has what recorded pKi? 7.78

Recorded pKi of CS(=O)(=O)Nc1cccc(CN2CCCC(Nc3ccc4[nH]ncc4c3)C2)c1 (stereo in doubt) [Compound 1.091] , please. 7.15

Reported pKi for Cc1ccc(S(=O)(=O)Nc2cc(CN3CCC[C@H](Nc4ccc5[nH]ncc5c4)C3)ccc2C)cc1 : what is it? 6.55

###

EXPERIMENT: Rat oral pharmacokinetics (plasma)
Type: in vivo
CONDITION_DETAILS: 20-30 μmol/kg, mean n = 3
Overview of reported Vz_F across a group of compounds:
Please state the figure in L/kg; there is no need to write the unit.

Vz_F lookup needed for CSc1ccc(CN2CCC[C@@H](Nc3ccc4[nH]ncc4c3)C2)cc1 [Compound 1.074] , thanks. 45.7

Form field: reported Vz_F of CS(=O)(=O)Nc1cccc(CN2CC[C@@H](Nc3cccc4cnccc34)C2)c1 [Compound 2.038] 22.5

For the compound Cc1ccc(CN2CCC[C@H](Nc3cccc4cnccc34)C2)cc1 [Compound 2.045] , what Vz_F is on record? 226

###

EXPERIMENTAL_TARGET: ROCK2 (Homo sapiens)
Construct: purchased Upstate/Chemicon 14-451
Sequence (O75116 11-552 limits assumed): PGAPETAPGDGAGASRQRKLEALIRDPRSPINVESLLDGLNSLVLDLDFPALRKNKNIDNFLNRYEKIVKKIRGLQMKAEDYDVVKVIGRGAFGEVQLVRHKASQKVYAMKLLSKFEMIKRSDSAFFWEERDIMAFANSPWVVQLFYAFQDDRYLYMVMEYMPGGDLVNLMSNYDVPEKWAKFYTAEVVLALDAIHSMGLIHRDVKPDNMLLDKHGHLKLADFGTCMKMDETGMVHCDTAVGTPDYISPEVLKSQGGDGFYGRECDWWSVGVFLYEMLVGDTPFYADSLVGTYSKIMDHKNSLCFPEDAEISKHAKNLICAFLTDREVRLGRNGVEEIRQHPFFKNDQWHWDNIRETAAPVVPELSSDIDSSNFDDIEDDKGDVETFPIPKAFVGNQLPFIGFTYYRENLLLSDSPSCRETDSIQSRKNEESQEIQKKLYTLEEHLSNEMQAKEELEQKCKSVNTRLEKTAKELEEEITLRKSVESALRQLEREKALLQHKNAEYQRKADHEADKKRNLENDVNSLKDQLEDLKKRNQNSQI
EXPERIMENT: Rho kinase inhibition assay (IMAP fluorescence polarization), ROCK2
Assay type: biochemical
CONDITION_DETAILS: 10 μM ATP; read-out: ROCK2 Ki, Avg
We label by threshold. Values of Ki strictly beneath 30 nM are t. Values of 30 nM and up are f.

OCCn1cc(CN2CCC[C@@H](Nc3ccc4[nH]ncc4c3)C2)c2ccccc21	t

I'd appreciate it if you could check whether C#Cc1cccc(CN2CCC[C@@H](Nc3ccc4[nH]ncc4c3)C2)c1 has Ki smaller than 30 nM. t

Is Ki strictly under 30 nM for the entry NC(=O)c1cccc(CN2CCC[C@H](Nc3ccc4[nH]ncc4c3)C2)c1 ? t

###

EXPERIMENTAL_TARGET: p70S6K human enzyme (Homo sapiens, UniProt P23443, T412E)
Construct: purchased Upstate Chemicon 14-486
Sequence (P23443 1-421 T412E limits assumed): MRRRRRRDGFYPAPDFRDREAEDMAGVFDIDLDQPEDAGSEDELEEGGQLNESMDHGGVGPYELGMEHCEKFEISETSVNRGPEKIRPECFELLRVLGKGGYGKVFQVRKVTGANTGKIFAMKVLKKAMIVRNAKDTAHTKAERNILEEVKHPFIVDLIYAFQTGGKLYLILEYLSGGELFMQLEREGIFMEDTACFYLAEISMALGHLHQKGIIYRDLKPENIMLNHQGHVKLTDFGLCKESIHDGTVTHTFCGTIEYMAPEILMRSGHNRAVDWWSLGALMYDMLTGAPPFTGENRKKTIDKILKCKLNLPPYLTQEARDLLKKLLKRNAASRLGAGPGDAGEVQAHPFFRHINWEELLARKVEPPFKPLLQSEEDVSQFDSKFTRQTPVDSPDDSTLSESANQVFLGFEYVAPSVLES
EXPERIMENT: p70S6K inhibition assay (IMAP FP);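 also: kinase reaction run at room temperature, phosphorylated substrate captured on IMAP beads and read as fluorescence polarization in mP, IC50 then converted to Ki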
Type: biochemical
CONDITION_DETAILS: 30 μM ATP; Ki=IC50/(1+([ATP Challenge]/EC50 ATP)); read-out: p70S6K Ki, Avg
pKi: −log10 of the molar value.
pKi below 6 gives FALSE; pKi at or above it gives TRUE.

CCS(=O)(=O)Nc1cccc(CN2CCC[C@@H](Nc3ccc4[nH]ncc4c3)C2)c1	FALSE
OCCn1ccc2ccc(CN3CC[C@@H](Nc4cccc5cnccc45)C3)cc21	TRUE

Is pKi at least 6? Consider CS(=O)(=O)Nc1cccc(CN2CCC[C@@H](Nc3ccc4[nH]ncc4c3)C2)c1 FALSE

Decide: is the reported value of pKi for COc1ccc(CN2CCC[C@H](Nc3ccc4[nH]ncc4c3)C2)cc1 equal to or greater than 6? FALSE

Assess whether reported pKi for Cc1ccc(CN2CCC[C@@H](Nc3ccc4[nH]ncc4c3)C2)cc1OCCO sits at 6 or higher. TRUE
